- Test system: barnyardgrass
- protocol.text: Test B flooded paddy test
- Assay type: in vivo, Echinochloa crus-galli
- assay.setup: Flood, 250 g ai/ha; 0 to 100 scale where 0 is no effect and 100 is complete control
- Procedure: Plant species in the flooded paddy test selected from rice (Oryza sativa), sedge, umbrella (small-flower umbrella sedge, Cyperus difformis), (Heteranthera limosa), and barnyardgrass (Echinochloa crus-galli) were grown to the 2-leaf stage for testing. […] Treated plants and controls were maintained in a greenhouse for 13 to 15 days, after which time all species were compared to controls and visually evaluated. […]
Plant response rating, Barnyardgrass values by entry
endpoint.label: Plant response rating, Barnyardgrass

FC(F)(F)COc1cccc(Oc2ncc(Cl)cn2)c1-n1cc(Br)cn1; 0
N#Cc1cccc(Oc2ncc(Cl)cn2)c1-n1cccn1; 0
N#Cc1cnn(-c2c(Br)cccc2Oc2ncc(Cl)cn2)c1; 20
Clc1cnc(Oc2cccc(Cl)c2-n2cc(Cl)cn2)nc1; 0
Clc1cnc(Oc2ccccc2-n2cc(I)nn2)nc1; 0
Clc1cnc(Oc2ccccc2-n2ccnc2)nc1; 15
O=Cc1cccc(Oc2ncc(Br)cn2)c1-n1cc(Cl)cn1; 0
Fc1cc(Oc2ncc(Cl)cn2)c(-n2cc(Br)cn2)cc1F; 20
Fc1cccc(Oc2ncc(Cl)cn2)c1-n1cc(Cl)cn1; 30
NN=Cc1cccc(Oc2ncc(Cl)cn2)c1-n1cc(Br)cn1; 0
